- testedTarget: human cystic fibrosis conductance transmembrane regulator (CFTR) (Homo sapiens)
- Construct: expressed in transfected cells; host or cells: FRT cells (Fischer rat thyroid epithelial cells)
- Sequence (P13569 whole entry): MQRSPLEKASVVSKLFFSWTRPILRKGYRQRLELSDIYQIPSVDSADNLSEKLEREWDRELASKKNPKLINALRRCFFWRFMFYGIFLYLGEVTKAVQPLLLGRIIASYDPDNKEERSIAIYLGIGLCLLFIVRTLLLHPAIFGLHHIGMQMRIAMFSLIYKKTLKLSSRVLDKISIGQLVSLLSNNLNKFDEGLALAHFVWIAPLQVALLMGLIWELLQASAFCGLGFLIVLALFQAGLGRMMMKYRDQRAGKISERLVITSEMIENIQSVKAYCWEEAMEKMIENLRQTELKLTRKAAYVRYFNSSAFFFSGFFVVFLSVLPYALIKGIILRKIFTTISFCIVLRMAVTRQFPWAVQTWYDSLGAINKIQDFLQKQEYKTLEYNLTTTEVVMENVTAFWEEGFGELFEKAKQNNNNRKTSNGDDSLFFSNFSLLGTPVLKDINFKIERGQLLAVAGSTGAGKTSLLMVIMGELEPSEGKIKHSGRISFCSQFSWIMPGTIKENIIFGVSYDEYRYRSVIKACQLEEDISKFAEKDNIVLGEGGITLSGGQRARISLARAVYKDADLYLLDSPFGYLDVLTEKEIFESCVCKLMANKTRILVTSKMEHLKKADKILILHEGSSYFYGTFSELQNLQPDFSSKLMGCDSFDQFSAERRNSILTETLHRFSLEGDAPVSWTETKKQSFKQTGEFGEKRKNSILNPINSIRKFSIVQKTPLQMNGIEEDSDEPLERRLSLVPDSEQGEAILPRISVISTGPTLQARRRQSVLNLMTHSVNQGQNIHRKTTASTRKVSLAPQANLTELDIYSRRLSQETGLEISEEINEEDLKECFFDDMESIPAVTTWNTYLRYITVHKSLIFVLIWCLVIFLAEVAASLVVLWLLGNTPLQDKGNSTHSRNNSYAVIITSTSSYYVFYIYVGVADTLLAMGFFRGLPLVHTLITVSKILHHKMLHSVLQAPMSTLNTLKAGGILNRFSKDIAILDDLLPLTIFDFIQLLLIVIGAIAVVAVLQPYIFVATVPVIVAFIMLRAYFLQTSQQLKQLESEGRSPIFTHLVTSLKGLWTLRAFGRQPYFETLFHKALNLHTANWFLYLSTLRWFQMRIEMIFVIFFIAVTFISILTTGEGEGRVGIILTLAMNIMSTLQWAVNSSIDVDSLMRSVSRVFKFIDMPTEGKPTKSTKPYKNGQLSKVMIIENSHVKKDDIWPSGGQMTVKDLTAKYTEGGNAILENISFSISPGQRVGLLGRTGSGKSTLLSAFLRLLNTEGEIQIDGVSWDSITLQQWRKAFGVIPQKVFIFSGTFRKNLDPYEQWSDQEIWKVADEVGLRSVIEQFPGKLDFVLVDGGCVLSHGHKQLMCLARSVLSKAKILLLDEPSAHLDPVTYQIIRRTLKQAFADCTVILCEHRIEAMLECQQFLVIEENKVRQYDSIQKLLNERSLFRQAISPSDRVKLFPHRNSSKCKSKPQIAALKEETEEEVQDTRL
- assaySummary: Effect upon CFTR chloride ion channel activity (YFP fluorescence quenching by iodide influx in FRT cells)
- Type: cell-based
- conditionNotes: FRT, 10 min; final concentration of 30 μM, reaction for 10 minutes; ratio based on the CFTR activity maximized by forskolin
readoutType: Emax at 30 µM (%)

Answered examples (8):
{"columns": ["compound", "Emax at 30 µM, %"],
 "data": [
  ["Brc1ccc(-c2nc3ccccc3c3cc4ccccn4c23)cc1 [Example 1]", 85],
  ["O=[N+]([O-])c1ccc(-c2nc3ccccc3c3cc4ccccn4c23)cc1 [Example 5]", 93],
  ["c1ccc2c(-c3nc4ccccc4c4cc5ccccn5c34)cccc2c1 [Example 12]", 44],
  ["COC(=O)c1c2c3ccccc3nc(-c3ccc[nH]3)c2n2ccccc12 [Example 33]", 37],
  ["CCOC(=O)c1c2c3ccccc3nc(-c3ccc(OC)c(OC)c3)c2n2ccccc12 [Example 38]", 31],
  ["COc1cc(OC)cc(-c2nc3ccccc3c3cc4c(C)cccn4c23)c1 [Example 21]", 66],
  ["c1ccc2cc(-c3nc4ccccc4c4cc5ccccn5c34)ccc2c1 [Example 13]", 83],
  ["Clc1ccc(-c2nc3ccccc3c3cc4ccccn4c23)s1 [Example 15]", 98]
]}

A: c1ccc(-c2nc3ccccc3c3cc4ccccn4c23)nc1 [Example 14]
B: Cc1cccn2c1cc1c3ccccc3nc(-c3cccc(F)c3)c12 [Example 17]
Request: I'm curious, which of these has a smaller Emax at 30 µM number: A or B ? To answer, give the label that identifies your chosen option.
Result: B

----------
Each item that follows carries a reported melting point.

Worked set:
{"columns": ["molecule", "readoutType", "result"],
 "data": [
  ["Fc1ccc(-c2nc3ccccc3c3cc4ccccn4c23)cc1", "melting point", "167 to 167.4 °C"],
  ["Brc1ccc2cc3c4ccccc4nc(-c4ccc(Br)s4)c3n2c1", "melting point", "223.3 to 223.7 °C"],
  ["CCOC(=O)c1c2c3ccccc3nc(-c3ccc(OC)c(OC)c3)c2n2ccccc12", "melting point", "195.5 to 195.8 °C"]
]}

Request: Name the recorded melting point of the item Cc1ccc(-c2nc3ccccc3c3cc4ccccn4c23)cc1 [Example 9, 6-(p-Tolyl)indolizino[3,2-c]quinoline] in your answer.
Result: 85.3 to 86 °C

Request: Using known records, supply melting point for Brc1ccc2cc3c4ccccc4nc(-c4ccco4)c3n2c1
Result: 193.3 to 193.6 °C

----------
readoutType: melting point

Recorded melting point, per entry:
{"columns": ["compound", "melting point"],
 "data": [
  ["c1ccc2c(-c3nc4ccccc4c4cc5ccccn5c34)cccc2c1", "205.6 to 206.3 °C"],
  ["Cc1cccn2c1cc1c3ccccc3nc(-c3ccc([N+](=O)[O-])cc3)c12", "259.7 to 260.4 °C"],
  ["COc1cc(OC)cc(-c2ccc3cc4c5ccccc5nc(-c5cccc6ccccc56)c4n3c2)c1", "177.5 to 177.8 °C"]
]}

Request: Respond only with melting point recorded for O=[N+]([O-])c1ccc(-c2nc3ccccc3c3cc4ccccn4c23)cc1
Result: 246.3 to 246.5 °C

Request: Please report the measured melting point for COC(=O)c1c2c3ccccc3nc(-c3ccc(Br)cc3)c2n2ccccc12
Result: 232.3 to 232.5 °C

Request: # return recorded melting point for entry CCOC(=O)c1c2c3ccccc3nc(-c3cccc(Cl)c3)c2n2ccccc12
Result: 214.3 to 214.5 °C

Request: Answer with reported melting point of COc1ccc(-c2nc3ccccc3c3cc4ccc(Br)cn4c23)cc1
Result: 229.5 to 230 °C

Request: Fill in melting point for record CCOC(=O)c1c2c3ccccc3nc(-c3ccc([N+](=O)[O-])cc3)c2n2ccccc12
Result: 245.8 to 246.1 °C

Request: Return melting point (reported value) for this compound: Clc1ccc(-c2nc3ccccc3c3cc4ccccn4c23)cc1
Result: 190.5 to 191 °C

----------
readoutType: melting point

Field: example entries. Status: answers known.
{"columns": ["molecule", "melting point"],
 "data": [
  ["Cc1ccc(-c2nc3ccccc3c3cc4c(C)cccn4c23)cc1 [Example 20]", "162.5 to 163.1 °C"],
  ["CCOC(=O)c1c2c3ccccc3nc(-c3cccc(OC)c3)c2n2ccccc12 [Example 37]", "173.4 to 173.8 °C"],
  ["Brc1ccc(-c2nc3ccccc3c3cc4ccccn4c23)cc1 [Example 1]", "205.5 to 205.8 °C"],
  ["Cc1cccn2c1cc1c3ccccc3nc(-c3ccco3)c12 [Example 23]", "112.4 to 113.2 °C"],
  ["Brc1ccc2cc3c4ccccc4nc(-c4cccc5ccccc45)c3n2c1 [Example 27]", "212 to 212.7 °C"]
]}

Request: Output melting point of COc1ccc(-c2nc3ccccc3c3cc4ccccn4c23)cc1 [Example 7]
Result: 164.3 to 164.7 °C

Request: Specify reported melting point for the molecule shown: COC(=O)c1c2c3ccccc3nc(-c3ccc[nH]3)c2n2ccccc12 [Example 33]
Result: 230.8 to 231.4 °C

Request: Give melting point for the following molecule: c1ccc(-c2nc3ccccc3c3cc4ccccn4c23)cc1 [Example 6, 6-Phenylindolizino[3,2-c]quinoline]
Result: 141.9 to 142.8 °C

----------
Let's look at some compounds and their measured melting point.

{"columns": ["compound", "readoutType", "result"],
 "data": [
  ["c1ccc2cc(-c3nc4ccccc4c4cc5ccccn5c34)ccc2c1 [Example 13]", "melting point", "205.6 to 206.2 °C"],
  ["COc1ccc(-c2nc3ccccc3c3cc4ccc(Br)cn4c23)cc1OC [Example 26]", "melting point", "188.5 to 189 °C"],
  ["CCOC(=O)c1c2c3ccccc3nc(-c3cccc(F)c3)c2n2ccccc12 [Example 34]", "melting point", "202.1 to 202.4 °C"],
  ["COc1cc(OC)cc(-c2nc3ccccc3c3cc4c(C)cccn4c23)c1 [Example 21]", "melting point", "185.8 to 186.4 °C"],
  ["Clc1ccc(-c2nc3ccccc3c3cc4ccccn4c23)s1 [Example 15]", "melting point", "161.4 to 161.7 °C"]
]}

Request: Please give measured melting point of the following entry: COc1ccc(-c2nc3ccccc3c3cc4ccc(-c5ccc([N+](=O)[O-])cc5)cn4c23)cc1 [Example 41]
Result: 256 to 256.6 °C

Request: In one line, give reported melting point of the entry COc1ccc(-c2nc3ccccc3c3cc4ccccn4c23)cc1OC [Example 11] .
Result: 91.3 to 92 °C

Request: Report melting point, nothing else, for this compound: COC(=O)c1c2c3ccccc3nc(-c3cc(OC)cc(OC)c3)c2n2ccccc12 [Example 31]
Result: 205.9 to 206.3 °C

Request: Give the reported melting point for this compound. Cc1cccn2c1cc1c3ccccc3nc(-c3cccc(F)c3)c12 [Example 17]
Result: 176.1 to 176.5 °C

Request: Consider the compound Clc1cccc(-c2nc3ccccc3c3cc4ccccn4c23)c1 [Example 4] and give its recorded melting point.
Result: 124.3 to 125.3 °C

Request: Give me measured melting point, please, for this compound: COc1ccc(-c2nc3ccccc3c3cc4c(C)cccn4c23)cc1OC [Example 22]
Result: 162.8 to 163.3 °C

----------
Collected melting point values appear next to each entry.

Here are 3 compounds together with their reported answers.
{"columns": ["itemSmiles", "melting point"],
 "data": [
  ["c1ccc(-c2nc3ccccc3c3cc4ccccn4c23)nc1", "177.9 to 178.3 °C"],
  ["COc1cccc(-c2nc3ccccc3c3cc4ccccn4c23)c1", "174 to 174.4 °C"],
  ["c1ccc2c(-c3nc4ccccc4c4cc5ccc(-c6ccoc6)cn5c34)cccc2c1", "91.3 to 92 °C"]
]}

Request: Using known records, supply melting point for COC(=O)c1c2c3ccccc3nc(-c3cccc4ccccc34)c2n2ccccc12
Result: 245.8 to 246.2 °C

Request: Annotate the compound CCOC(=O)c1c2c3ccccc3nc(-c3ccc4ccccc4c3)c2n2ccccc12 with its measured melting point.
Result: 210.3 to 210.7 °C

Request: // Input: COc1cc(OC)cc(-c2nc3ccccc3c3cc4ccccn4c23)c1 . Output its melting point only.
Result: 139.7 to 140.4 °C

Request: # return recorded melting point for entry COc1cccc(-c2nc3ccccc3c3cc4c(C)cccn4c23)c1
Result: 165 to 166 °C

Request: Identify measured melting point corresponding to Cc1ccc(-c2nc3ccccc3c3cc4ccc(Br)cn4c23)cc1
Result: 230.8 to 231.2 °C

Request: In one line, give reported melting point of the entry COc1ccc(-c2nc3ccccc3c3c(Br)c4ccccn4c23)cc1 .
Result: 221.6 to 221.9 °C
